# target system: Neuronal acetylcholine receptor; alpha2/beta4 (Rattus norvegicus, UniProt P12389+P12392)
# Sequence (P12389 whole entry): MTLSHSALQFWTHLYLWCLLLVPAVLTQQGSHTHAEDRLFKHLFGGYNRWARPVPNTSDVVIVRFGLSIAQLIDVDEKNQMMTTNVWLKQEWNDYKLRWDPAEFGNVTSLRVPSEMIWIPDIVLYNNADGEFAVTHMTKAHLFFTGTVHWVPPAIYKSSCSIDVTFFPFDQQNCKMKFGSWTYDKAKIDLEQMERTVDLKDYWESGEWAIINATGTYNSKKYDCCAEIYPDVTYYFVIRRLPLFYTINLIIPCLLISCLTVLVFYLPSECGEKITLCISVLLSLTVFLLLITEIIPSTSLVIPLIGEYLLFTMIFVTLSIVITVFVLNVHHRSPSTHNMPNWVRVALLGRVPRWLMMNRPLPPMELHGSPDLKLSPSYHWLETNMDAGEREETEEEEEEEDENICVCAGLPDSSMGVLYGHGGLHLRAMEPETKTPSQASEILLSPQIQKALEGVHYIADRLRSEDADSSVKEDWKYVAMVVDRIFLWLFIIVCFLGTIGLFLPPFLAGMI
# Sequence (P12392 whole entry): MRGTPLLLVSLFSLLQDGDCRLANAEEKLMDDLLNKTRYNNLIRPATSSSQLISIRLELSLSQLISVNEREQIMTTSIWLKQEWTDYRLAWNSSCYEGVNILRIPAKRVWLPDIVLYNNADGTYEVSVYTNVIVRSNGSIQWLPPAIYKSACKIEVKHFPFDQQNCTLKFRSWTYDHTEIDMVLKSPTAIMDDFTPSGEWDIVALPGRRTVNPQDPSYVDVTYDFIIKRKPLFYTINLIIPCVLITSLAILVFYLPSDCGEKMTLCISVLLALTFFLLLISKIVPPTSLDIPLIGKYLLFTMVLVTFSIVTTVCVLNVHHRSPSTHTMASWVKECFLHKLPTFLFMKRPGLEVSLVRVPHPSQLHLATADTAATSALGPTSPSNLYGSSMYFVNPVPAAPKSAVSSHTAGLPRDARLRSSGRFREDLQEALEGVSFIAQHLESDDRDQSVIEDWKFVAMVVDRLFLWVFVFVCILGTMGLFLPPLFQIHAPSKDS
# experimental details: Binding affinity towards Nicotinic acetylcholine receptor alpha2-beta4 using [3H]epibatidine
# Format: protein-complex assay
property: pKi
Hey, just a heads up that pKi is the negative log base 10 of the concentration in molar.

Example molecules with recorded pKi:
Clc1ccc(C2CC3CCC2N3CCCN2C3CCC2C(c2ccc(Cl)nc2)C3)cn1 (centres undefined) : 7.24
Clc1ccc(C2CC3CCC2N3CCN2C3CCC2C(c2ccc(Cl)nc2)C3)cn1 (centres undefined) : 7.57
Clc1ccc(C2CC3CCC2N3CCCCCCN2C3CCC2C(c2ccc(Cl)nc2)C3)cn1 (centres undefined) : 7.32

Input line: Need pKi of Clc1ccc(C2CC3CCC2N3CCCCCCCCCCN2C3CCC2C(c2ccc(Cl)nc2)C3)cn1 (centres undefined) , thanks.
Output line: 7.14

----------
# target system: Neuronal acetylcholine receptor; alpha2/beta2 (Rattus norvegicus, UniProt P12389+P12390)
# Sequence (P12389 whole entry, one chain of several): as the sequence (P12389 whole entry) above
# experimental details: Binding affinity towards nicotinic acetylcholine receptor alpha2-beta2 using [3H]epibatidine
property: pKi
Hey, just a heads up that pKi is the negative log base 10 of the concentration in molar.

Clc1ccc(C2CC3CCC2N3CCN2C3CCC2C(c2ccc(Cl)nc2)C3)cn1 (centres undefined) : 8.68

Input line: Request body: readout pKi, system Neuronal acetylcholine receptor; alpha2/beta2 (Rattus norvegicus, UniProt P12389+P12390), query Clc1ccc(C2CC3CCC2N3CCCN2C3CCC2C(c2ccc(Cl)nc2)C3)cn1 (centres undefined) . Return the value.
Output line: 8.26

Input line: Request body: readout pKi, system Neuronal acetylcholine receptor; alpha2/beta2 (Rattus norvegicus, UniProt P12389+P12390), query Clc1ccc(C2CC3CCC2N3CCCCCCN2C3CCC2C(c2ccc(Cl)nc2)C3)cn1 (centres undefined) . Return the value.
Output line: 8.50

Input line: Request body: readout pKi, system Neuronal acetylcholine receptor; alpha2/beta2 (Rattus norvegicus, UniProt P12389+P12390), query Clc1ccc(C2CC3CCC2N3CCCCCCCCCCN2C3CCC2C(c2ccc(Cl)nc2)C3)cn1 (centres undefined) . Return the value.
Output line: 8.12

----------
# target system: Neuronal acetylcholine receptor; alpha4/beta2 (Rattus norvegicus, UniProt P09483+P12390)
# Sequence (P09483 whole entry): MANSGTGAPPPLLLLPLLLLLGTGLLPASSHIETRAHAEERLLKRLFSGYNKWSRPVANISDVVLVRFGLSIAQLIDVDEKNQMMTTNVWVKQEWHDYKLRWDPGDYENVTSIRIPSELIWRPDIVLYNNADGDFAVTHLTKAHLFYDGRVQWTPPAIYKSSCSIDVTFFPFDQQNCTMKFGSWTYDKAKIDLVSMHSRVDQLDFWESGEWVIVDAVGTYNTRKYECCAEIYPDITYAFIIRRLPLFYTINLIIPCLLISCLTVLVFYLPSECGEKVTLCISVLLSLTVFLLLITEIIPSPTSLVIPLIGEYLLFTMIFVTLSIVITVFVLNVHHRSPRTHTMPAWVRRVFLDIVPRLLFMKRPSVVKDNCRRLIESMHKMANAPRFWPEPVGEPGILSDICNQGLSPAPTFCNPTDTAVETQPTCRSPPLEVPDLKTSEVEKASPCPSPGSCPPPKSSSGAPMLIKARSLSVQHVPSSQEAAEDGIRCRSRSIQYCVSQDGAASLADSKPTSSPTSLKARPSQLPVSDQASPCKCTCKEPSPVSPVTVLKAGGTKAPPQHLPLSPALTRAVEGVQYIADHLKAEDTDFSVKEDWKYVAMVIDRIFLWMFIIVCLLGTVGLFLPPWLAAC
# Sequence (P12390 whole entry): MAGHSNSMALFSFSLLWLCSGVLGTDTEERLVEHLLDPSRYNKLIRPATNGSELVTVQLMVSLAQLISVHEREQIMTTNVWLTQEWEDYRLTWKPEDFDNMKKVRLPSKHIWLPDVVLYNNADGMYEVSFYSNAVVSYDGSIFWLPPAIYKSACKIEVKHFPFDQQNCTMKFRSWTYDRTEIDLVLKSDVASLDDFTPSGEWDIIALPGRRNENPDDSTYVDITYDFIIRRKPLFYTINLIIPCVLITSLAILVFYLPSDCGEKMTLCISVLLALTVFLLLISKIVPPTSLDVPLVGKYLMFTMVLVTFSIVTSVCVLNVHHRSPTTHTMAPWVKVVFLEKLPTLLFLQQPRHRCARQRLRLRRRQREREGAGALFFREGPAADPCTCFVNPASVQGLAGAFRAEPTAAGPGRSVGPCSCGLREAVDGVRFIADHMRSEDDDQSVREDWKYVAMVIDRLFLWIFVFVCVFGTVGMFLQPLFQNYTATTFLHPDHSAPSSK
# experimental details: Binding affinity towards Nicotinic acetylcholine receptor alpha4-beta2 using [3H]epibatidine
property: Ki (µM)
The answer is to be given in µM; state only the numeric part.

Example compounds with recorded Ki:
Clc1ccc(C2CC3CCC2N3CCCCCCCCCCN2C3CCC2C(c2ccc(Cl)nc2)C3)cn1 (centres undefined) : 0.0216
Clc1ccc(C2CC3CCC2N3CCCCCCN2C3CCC2C(c2ccc(Cl)nc2)C3)cn1 (centres undefined) : 0.00905
Clc1ccc(C2CC3CCC2N3CCCN2C3CCC2C(c2ccc(Cl)nc2)C3)cn1 (centres undefined) : 0.0157

Input line: Need Ki of Clc1ccc(C2CC3CCC2N3CCN2C3CCC2C(c2ccc(Cl)nc2)C3)cn1 (centres undefined) , thanks.
Output line: 0.00933

----------
# target system: Neuronal acetylcholine receptor; alpha4/beta4 (Rattus norvegicus, UniProt P09483+P12392)
# Sequence (P12392 whole entry, one chain of several): as the sequence (P12392 whole entry) above
# experimental details: Binding affinity towards Nicotinic acetylcholine receptor alpha4-beta4 using [3H]epibatidine
property: Ki (nM)
The answer is to be given in nM; state only the numeric part.

Example compounds with recorded Ki:
Clc1ccc(C2CC3CCC2N3CCCN2C3CCC2C(c2ccc(Cl)nc2)C3)cn1 (centres undefined) : 54.2
Clc1ccc(C2CC3CCC2N3CCCCCCN2C3CCC2C(c2ccc(Cl)nc2)C3)cn1 (centres undefined) : 40.4
Clc1ccc(C2CC3CCC2N3CCN2C3CCC2C(c2ccc(Cl)nc2)C3)cn1 (centres undefined) : 27.7

With those in mind, consider the next compound.
Input line: Need Ki of Clc1ccc(C2CC3CCC2N3CCCCCCCCCCN2C3CCC2C(c2ccc(Cl)nc2)C3)cn1 (centres undefined) , thanks.
Output line: 61.3
